Reference for the values: PubChem BioAssay (NCI)

- Tested on: ACHN renal
- Protocol text: NCI-60 one-dose screen, 48 h
- Study conditions: 10 µM
About 83,000 compounds went through this panel and 20% of them were active in at least one assay; those are over-represented in the sample as a whole. Calls of active or inactive are those of the source. How the source made its calls: active means growth percent below 10; inactive means the rest.
Permitted responses: active, inactive

Some entries whose results are on file:
Molecule: COc1ccc(Nc2nc(N)n(Cc3cccc(Br)c3)n2)cc1
System: ACHN renal
Assigned class: active
//
Molecule: Cc1ccc(CSc2nc(-c3ccc(F)cc3)c(C#N)c(=O)[nH]2)cc1
System: ACHN renal
Assigned class: inactive
//
Molecule: COc1ccc2nc(Nc3cccc(NC(=O)c4ccc(CN5CCN(C)CC5)c(C(F)(F)F)c4)c3)ccc2c1
System: ACHN renal
Assigned class: active

Dear colleague, could you share the recorded outcome for COc1cc(/C=C/C(=O)c2ccc(C(F)(F)F)cc2)ccc1Oc1nc(Nc2ccc(F)cc2)nc(N(C)C)n1 when you have a moment?
inactive

For N#Cc1ccc(-c2nn(-c3ccc(C(=O)O)cc3)cc2CNc2cccc(Br)c2)cc1 , which call appears in the assay record?
inactive

State the result this test recorded for CN1C/C(=C\c2ccc(O)cc2O)c2[o+]c3cc(O)ccc3cc2C1 .
inactive

Could you please tell me the result logged for CN1C(=O)/C(=C/c2nccs2)SC1=S in this assay?
inactive

What did the test return for Cc1ccc(C(C)C)cc1NC(=O)c1ccccc1N(C)C ?
inactive
